# Tested on: U2OS
# protocol-notes: Multiplex assay against U2OS
# Format: toxicity, cell-based
# measurement-setup: human, 12 h, 10 µM, compound concentration 10 uM, replicate 2
property-label: Population Normal (%)
Report only the number, with the unit % understood.

Answer with the recorded Population Normal (%) of CCn1c(-c2nc3cc(C(=O)N4CCCC(N)C4)ccc3n2C)cc2ccccc21.Cl (centres undefined) only. 98

---

# System: HEK-293T
# protocol-notes: Multiplex assay against HEK293T
# Assay type: toxicity, cell-based
# measurement-setup: human, 48 h, 10 µM, compound concentration 10 uM, replicate 1
Cut-off 70% on Population Healthy Nuclei (%), inclusive. At or above means T; below means F.

Here are 4 molecules together with their reported answers.
Answer whether Population Healthy Nuclei (%) of CCn1c(-c2nc3cc(C(=O)N4CCCC(N)C4)ccc3n2C)cc2ccccc21.Cl (centres undefined) is greater than or equal to 70%. T

Determine whether this molecule has Population Healthy Nuclei (%) no lower than 70%: COc1cc2nc(N3CCN(C(=O)COc4c(OC)cccc4C(C)C)CC3)nc(N)c2cc1OC.Cl.Cl F

Does the molecule OCCCNc1cc(-c2ccnc(Nc3cccc(Cl)c3)n2)ccn1 have recorded Population Healthy Nuclei (%) that is 70% or more? F

Hello, I need to know if O=c1nc2[nH]c3ccccc3nc-2c(=O)[nH]1 has measured Population Healthy Nuclei (%) not below 70%. Thanks! T

Others:
Quick check: does Cc1cc(O)c(-c2ccc([C@@H](C)CN(C)C)cc2)c2c1[nH]c(=O)c1sccc12 have Population Healthy Nuclei (%) greater than or equal to 70%? F

Please tell me: is the molecule Cc1c(Cc2ccc3ccccc3n2)c2cc(F)ccc2n1CC(=O)O at or over 70% in terms of Population Healthy Nuclei (%)? T

Decide: is the reported value of Population Healthy Nuclei (%) for CC(C)(C)c1ccc(CSc2cnn(C(C)(C)C)c(=O)c2Cl)cc1 equal to or greater than 70%? T

Please indicate if the recorded Population Healthy Nuclei (%) for CSc1nc(NC2CCCC2)c([N+](=O)[O-])c(NC2CCCC2)n1 meets or exceeds 70%. T

Where do the numbers come from? From ChEMBL document CHEMBL5058577.
